# assay explanation: Inhibition of HIV reverse transcriptase
# Parameters: species or system Human immunodeficiency virus
assay endpoint: pIC50

> print(dat)
                                   compound  assay.endpoint  value.measured
1  CCCN1Cc2cccc3[nH]c(=S)n(c23)CC1C (stereo not given)           pIC50            5.78

P. C[C@H]1Cn2c(=S)[nH]c3cccc(c32)CN1CC1CC1
Q. CC(C)=CCN1Cc2cccc3[nH]c(=O)n(c23)[C@H](C)[C@@H]1C (relative stereo)
Looking only at measured pIC50, which entry is lower, P or Q ? When you have decided, please share the label of that item.
Q
